Target: T1, RHEB1, mGppNHp-bound (human, UniProt Q15382 1-184)
T1 construct: human RHEB1; Loaded with mGppNHp; the discussion speaks of the RHEB G domain
T1 sequence (Q15382 whole entry): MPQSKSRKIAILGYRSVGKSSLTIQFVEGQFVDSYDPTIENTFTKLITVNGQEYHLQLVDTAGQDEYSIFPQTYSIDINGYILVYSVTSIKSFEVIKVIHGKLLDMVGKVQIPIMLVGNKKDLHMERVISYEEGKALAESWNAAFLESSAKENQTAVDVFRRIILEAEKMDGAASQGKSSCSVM
Test: fluorescence polarisation; increasing concentrations of the RA/RB domain as MBP fusion protein (0.002-300 µM; or MBP alone) titrated to mGppNHp-bound RAS protein (1 µM); 30 mM Tris-HCl pH 7.4, 100 mM NaCl, 5 mM MgCl2, 3 mM DTT; Kd from a quadratic ligand-binding equation
Details: both partners purified
Provide the reported Kd of each item.
One number for each entry, in µM.

Would you please look over these solved cases?
BINDER	MEASUREMENT_KIND	OBSERVED_RESULT
RASSF1 RA domain, MBP fusion protein (domain or fragment, human, UniProt Q9NS23 194-288, looked up, RASSF1 RA domain, aa 194-288 of Q9NS23) RGPGRGTSVRRRTSFYLPKDAVKHLHVLSRTRAREVIEALLRKFLVVDDPRKFALFERAERHGQVYLRKLLDDEQPLRLRLLAGPSDKALSFVLK	Kd	37
RASSF6 RA domain, MBP fusion protein (domain or fragment, human, UniProt Q6ZTQ3 218-306, looked up, RASSF6 RA domain, aa 218-306 of Q6ZTQ3) YNHETSIFIPAFESETKVRVNSNMRTEEVIKQLLQKFKIENSPQDFALHIIFATGEQRRLKKTDIPLLQRLLQGPSEKNARIFLMDKDA	Kd	56

State the recorded Kd for every item in the following list.
1. RASSF10 RA domain, MBP fusion protein (domain or fragment, human, UniProt A6NK89 4-133, looked up, RASSF10 RA domain, aa 4-133 of A6NK89) SEKKISVWICQEEKLVSGLSRRTTCSDVVRVLLEDGCRRRRRQRRSRRLGSAGDPHGPGELPEPPNEDDEDDDEALPQGMLCGPPQCYCIVEKWRGFERILPNKTRILRLWAAWGEEQENVRFVLVRSEA
2. RASSF9 RA domain, MBP fusion protein (domain or fragment, human, UniProt O75901 25-119, looked up, RASSF9 RA domain, aa 25-119 of O75901) EEKEIVVWVCQEEKLVCGLTKRTTSADVIQALLEEHEATFGEKRFLLGKPSDYCIIEKWRGSERVLPPLTRILKLWKAWGDEQPNMQFVLVKADA

Result string:
150
143
